- study_system: T1, Activin A (UniProt P08476 311-426)
- T1 sequence (looked up): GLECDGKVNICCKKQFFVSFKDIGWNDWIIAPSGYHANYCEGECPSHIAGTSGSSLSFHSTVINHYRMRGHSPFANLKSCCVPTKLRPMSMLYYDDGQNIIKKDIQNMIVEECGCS
- test_protocol: cell-based or functional assay
Catalogue of IC50 (ng/mL), reporter gene assay, conditioned media readings, one per entry.
Answer format: value, then unit.

These recorded examples may help you get a feel for the data.
binder: ActRIIb-hFc (R64, 20-132) (Fc fusion) GRGEAETRECIYYNANWELERTNQSGLERCEGEQDKRLHCYASWRNSSGTIELVKKGCWLDDFNCYDRQECVATEENPQVYFCCCEGNFCNERFTHLPEAGGPEVTYEPPPTAGGGTHTCPPCPAPELLGGPSVFLFPPKPKDTLMISRTPEVTCVVVDVSHEDPEVKFNWYVDGVEVHNAKTKPREEQYNSTYRVVSVLTVLHQDWLNGKEYKCKVSNKALPVPIEKTISKAKGQPREPQVYTLPPSREEMTKNQVSLTCLVKGFYPSDIAVEWESNGQPENNYKTTPPVLDSDGSFFLYSKLTVDKSRWQQGNVFSCSVMHEALHNHYTQKSLSLSPGK
result: 32 ng/mL
--
binder: ActRIIb-hFc (R64, 20-131) (Fc fusion) GRGEAETRECIYYNANWELERTNQSGLERCEGEQDKRLHCYASWRNSSGTIELVKKGCWLDDFNCYDRQECVATEENPQVYFCCCEGNFCNERFTHLPEAGGPEVTYEPPPTGGGTHTCPPCPAPELLGGPSVFLFPPKPKDTLMISRTPEVTCVVVDVSHEDPEVKFNWYVDGVEVHNAKTKPREEQYNSTYRVVSVLTVLHQDWLNGKEYKCKVSNKALPVPIEKTISKAKGQPREPQVYTLPPSREEMTKNQVSLTCLVKGFYPSDIAVEWESNGQPENNYKTTPPVLDSDGSFFLYSKLTVDKSRWQQGNVFSCSVMHEALHNHYTQKSLSLSPGK
result: 44 ng/mL
--
binder: ActRIIb-hFc (R64, 20-128) (Fc fusion) GRGEAETRECIYYNANWELERTNQSGLERCEGEQDKRLHCYASWRNSSGTIELVKKGCWLDDFNCYDRQECVATEENPQVYFCCCEGNFCNERFTHLPEAGGPEVTYEPGGGTHTCPPCPAPELLGGPSVFLFPPKPKDTLMISRTPEVTCVVVDVSHEDPEVKFNWYVDGVEVHNAKTKPREEQYNSTYRVVSVLTVLHQDWLNGKEYKCKVSNKALPVPIEKTISKAKGQPREPQVYTLPPSREEMTKNQVSLTCLVKGFYPSDIAVEWESNGQPENNYKTTPPVLDSDGSFFLYSKLTVDKSRWQQGNVFSCSVMHEALHNHYTQKSLSLSPGK
result: 158 ng/mL

Next binder, IC50 (ng/mL), reporter gene assay, conditioned media to be filled in.
# query: IC50 (ng/mL), reporter gene assay, conditioned media of entry ActRIIB(20-134)-hFc (Fc fusion) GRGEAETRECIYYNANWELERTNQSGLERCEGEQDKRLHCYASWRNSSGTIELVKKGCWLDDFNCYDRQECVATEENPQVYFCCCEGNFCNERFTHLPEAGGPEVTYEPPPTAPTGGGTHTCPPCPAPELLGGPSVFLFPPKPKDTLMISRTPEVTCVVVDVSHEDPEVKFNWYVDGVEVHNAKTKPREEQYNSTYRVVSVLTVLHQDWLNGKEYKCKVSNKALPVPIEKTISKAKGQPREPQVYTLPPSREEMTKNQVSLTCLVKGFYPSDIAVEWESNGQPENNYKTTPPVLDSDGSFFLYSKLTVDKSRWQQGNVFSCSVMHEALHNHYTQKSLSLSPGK
2 ng/mL
